Values from patent US9096624B2

- subject of test: FAK (Homo sapiens, UniProt Q05397)
- Sequence (Q05397 whole entry): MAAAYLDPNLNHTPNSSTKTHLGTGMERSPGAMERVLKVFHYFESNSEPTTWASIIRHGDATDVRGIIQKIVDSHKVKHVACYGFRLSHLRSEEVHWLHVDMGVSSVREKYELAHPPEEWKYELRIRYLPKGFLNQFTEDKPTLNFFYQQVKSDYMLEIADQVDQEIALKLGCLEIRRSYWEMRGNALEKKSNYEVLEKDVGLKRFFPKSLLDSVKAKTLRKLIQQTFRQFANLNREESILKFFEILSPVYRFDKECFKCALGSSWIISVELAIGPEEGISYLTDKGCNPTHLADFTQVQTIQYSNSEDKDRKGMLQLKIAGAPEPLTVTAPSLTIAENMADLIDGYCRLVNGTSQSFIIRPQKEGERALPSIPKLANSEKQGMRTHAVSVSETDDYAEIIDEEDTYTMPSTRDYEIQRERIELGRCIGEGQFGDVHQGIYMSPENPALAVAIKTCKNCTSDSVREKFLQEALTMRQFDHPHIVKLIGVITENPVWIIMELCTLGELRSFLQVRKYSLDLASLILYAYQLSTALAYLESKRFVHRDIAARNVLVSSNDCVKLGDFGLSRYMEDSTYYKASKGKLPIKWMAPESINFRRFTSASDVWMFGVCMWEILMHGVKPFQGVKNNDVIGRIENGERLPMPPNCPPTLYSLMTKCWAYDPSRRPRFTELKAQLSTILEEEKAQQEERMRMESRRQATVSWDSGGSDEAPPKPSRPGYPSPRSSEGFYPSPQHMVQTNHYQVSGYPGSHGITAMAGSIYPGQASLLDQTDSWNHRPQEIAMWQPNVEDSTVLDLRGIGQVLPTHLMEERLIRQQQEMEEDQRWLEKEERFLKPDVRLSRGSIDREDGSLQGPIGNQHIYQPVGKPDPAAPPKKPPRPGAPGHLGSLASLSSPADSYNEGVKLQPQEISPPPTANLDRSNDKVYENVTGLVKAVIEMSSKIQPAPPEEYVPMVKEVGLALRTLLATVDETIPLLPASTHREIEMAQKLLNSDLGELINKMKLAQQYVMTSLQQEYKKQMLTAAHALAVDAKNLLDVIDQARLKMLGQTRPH
- assay name: Cell-based capture ELISA for inhibition of FAK autophosphorylation [pY397] in MiaPaCa2 cells
- experimental conditions: MIA-PaCa2 cells, + 50% mouse plasma (Table 2); read-out: Mean FAK Cell Mechanistic IC50 + 50% mP MIA-PaCa2
- Procedure: Cell-Based Assays for Inhibition of FAK Autophosphorylation: MiaPaCa2 and U87MG ELISA kit from Invitrogen (KHO0441). Reagents Provided in Biosource FAK [pY397] The cells were then suspended in cell assay medium.
pIC50: −log10 of the molar value.
Please go through the items and note down their pIC50.

## Task # input molecule: CCOP(=O)(Cc1ccc(Nc2ncc(C(F)(F)F)c(Nc3ccc(-c4cnn(C5CC(O)C5)c4)c4c3C(=O)N(C)C4)n2)c(OC)c1)OCC (stereo not shown) [Example 74] ; wanted: its pIC50
## Result > 6.00

## Task # input molecule: CN(c1ncccc1CNc1nc(Nc2ccc(CP(C)(C)=O)cc2)ncc1C(F)(F)F)S(C)(=O)=O [Example 12] ; wanted: its pIC50
## Result 5.00 to 6.00

## Task # input molecule: CCP(=O)(CC)Cc1cccc(Nc2ncc(C(F)(F)F)c(Nc3ccccc3C(=O)NC)n2)c1 [Example 23] ; wanted: its pIC50
## Result > 6.00

## Task # input molecule: CCOP(=O)(Cc1ccc(Nc2ncc(C(F)(F)F)c(NCc3cccnc3N(C)S(C)(=O)=O)n2)cc1)c1ccccc1 (stereo not shown) [Example 50] ; wanted: its pIC50
## Result 5.00 to 6.00

## Task # input molecule: CC(C)COP(=O)(Cc1ccc(Nc2ncc(C(F)(F)F)c(NCc3cccnc3N(C)S(C)(=O)=O)n2)cc1)OCC(C)C [Example 30] ; wanted: its pIC50
## Result 5.00 to 6.00

## Task # input molecule: CCOP(=O)(Cc1ccc(Nc2ncc(C(F)(F)F)c(Nc3ccc(N4CCCC4)c4c3C(=O)N(C)C4)n2)c(OC)c1)OCC [Example 83] ; wanted: its pIC50
## Result > 6.00

## Task # input molecule: CCOP(=O)(Cc1ccc(Nc2ncc(C(F)(F)F)c(Nc3ccc([C@H]4CC[C@H](C(=O)O)CC4)c4c3C(=O)N(C)C4)n2)c(OC)c1)OCC [Example 90] ; wanted: its pIC50
## Result > 6.00

---

Please go through the items and note down their IC50.
- subject of test: FAK (Homo sapiens)
- assay name: Cell-based capture ELISA for inhibition of FAK autophosphorylation [pY397] in MiaPaCa2 cells
- experimental conditions: MIA-PaCa2 cells, + 50% mouse plasma (Table 3); read-out: Mean FAK Cell Mechanistic IC50 + 50% mP MIA-PaCa2

## Task # input compound: "CCOP(=O)(Cc1ccc(Nc2ncc(C(F)(F)F)c(Nc3ccc(-c4cnn([C@H]5CC[C@H](O)CC5)c4)c4c3C(=O)N(C)C4)n2)cc1)OCC" ; wanted: its IC50
## Result < 1 µM

## Task # input compound: "CCOP(=O)(Cc1ccc(Nc2ncc(C(F)(F)F)c(Nc3ccc(-c4cnn(CCN(CC)CC)c4)c4c3C(=O)N(C)C4)n2)cc1)OCC" ; wanted: its IC50
## Result < 1 µM

## Task # input compound: "CCOP(=O)(Cc1ccc(Nc2ncc(C(F)(F)F)c(Nc3ccc(CN4CCCC4)c4c3C(=O)N(C)C4)n2)c(OC)c1)OCC" ; wanted: its IC50
## Result < 1 µM

## Task # input compound: "CCOP(=O)(Cc1ccc(Nc2ncc(C(F)(F)F)c(Nc3ccc(CN4CCCC4)c4c3C(=O)N(C)C4)n2)cc1)OCC" ; wanted: its IC50
## Result 1 to 10 µM

## Task # input compound: "CCOP(=O)(Cc1ccc(Nc2ncc(C(F)(F)F)c(Nc3cccc4c3C(=O)N(C)C4(C)C)n2)c(OC)c1)OCC" ; wanted: its IC50
## Result 1 to 10 µM

## Task # input compound: "CNC(=O)c1ccccc1Nc1nc(Nc2ccc(CP(=O)(OCC(F)(F)F)OCC(F)(F)F)cc2OC)ncc1C(F)(F)F" ; wanted: its IC50
## Result < 1 µM

## Task # input compound: "CCOP(=O)(OCC)C(F)(F)c1ccc(Nc2ncc(C(F)(F)F)c(Nc3ccccc3C(=O)NC)n2)cc1" ; wanted: its IC50
## Result < 1 µM

## Task # input compound: "CCOc1cc(CP(=O)(OCC)OCC)ccc1Nc1ncc(C(F)(F)F)c(Nc2ccc([C@H]3CC[C@@H](C(=O)OCC)CC3)c3c2C(=O)N(C)C3)n1" ; wanted: its IC50
## Result 1 to 10 µM

## Task # input compound: "CCOc1cc(CP(=O)(OCC)OCC)ccc1Nc1ncc(C(F)(F)F)c(Nc2ccc([C@H]3CC[C@@H](C(=O)O)CC3)c3c2C(=O)N(C)C3)n1" ; wanted: its IC50
## Result < 1 µM

## Task # input compound: "CCOP(=O)(Cc1ccc(Nc2ncc(C(F)(F)F)c(Nc3cccc4c3C(=O)N(C)CC4)n2)cc1)OCC" ; wanted: its IC50
## Result < 1 µM

## Task # input compound: "CCOP(=O)(Cc1ccc(Nc2ncc(C(F)(F)F)c(Nc3ccc([C@H]4CC[C@H](O)CC4)cc3C(=O)NC)n2)c(OC)c1)OCC" ; wanted: its IC50
## Result < 1 µM

## Task # input compound: "CCOP(=O)(Cc1ccc(Nc2ncc(C(F)(F)F)c(Nc3ccc([C@H]4CC[C@@H](O)CC4)cc3C(=O)N(C)C)n2)c(OC)c1)OCC" ; wanted: its IC50
## Result 1 to 10 µM

## Task # input compound: "CCCP(=O)(CCC)c1cccc(Nc2ncc(C(F)(F)F)c(Nc3ccc([C@H]4CC[C@H](O)CC4)c4c3C(=O)N(C)C4)n2)c1" ; wanted: its IC50
## Result < 1 µM

---

Please go through the items and note down their IC50.
- subject of test: UniProt:Q05397
- assay name: Cell-based capture ELISA for inhibition of FAK autophosphorylation [pY397] in U87MG cells
- experimental conditions: Mean FAK Cell Mechanistic IC50 + 50% mP U87MG, + 50% mouse plasma

## Task Field: IC50 (UniProt:Q05397). Entry: "CCOC(=O)[C@H]1CC[C@@H](c2ccc(Nc3nc(Nc4ccc(CP(=O)(OCC)OCC)cc4OC)ncc3C(F)(F)F)c3c(=O)c(C)c[nH]c32)CC1"
## Result < 1 µM

## Task Field: IC50 (UniProt:Q05397). Entry: "CCOP(=O)(Cc1ccc(Nc2ncc(C(F)(F)F)c(Nc3ccc(C4=CCNCC4)c4c3C(=O)N(C)C4)n2)c(OC)c1)OCC"
## Result < 1 µM

## Task Field: IC50 (UniProt:Q05397). Entry: "CCOP(=O)(Cc1ccc(Nc2ncc(C(F)(F)F)c(Nc3ccc([C@H]4CC[C@H](O)CC4)c4c3C(=O)N(C)C4)n2)cn1)OCC"
## Result < 1 µM

---

- subject of test: FAK (Homo sapiens, UniProt Q05397)
- assay name: Cell-based capture ELISA for inhibition of FAK autophosphorylation [pY397] in MiaPaCa2 cells
- experimental conditions: MIA-PaCa2 cells, + 50% human plasma; read-out: Mean FAK Cell Mechanistic IC50 + 50% hP MIA-PaCa2
Please go through the items and note down their IC50.

## Task # input compound: CN(c1ncccc1CNc1nc(Nc2ccc(CP(=O)(O)O)cc2)ncc1C(F)(F)F)S(C)(=O)=O [Example 41] ; wanted: its IC50
## Result 1000 to 10000 nM

## Task # input compound: CCOP(=O)(Cc1ccc(Nc2ncc(Br)c(Nc3ccccc3C(=O)NC)n2)cc1)OCC [Example 49] ; wanted: its IC50
## Result < 1000 nM

## Task # input compound: CC(C)OP(=O)(Cc1ccc(Nc2ncc(C(F)(F)F)c(NCc3cccnc3N(C)S(C)(=O)=O)n2)cc1)OC(C)C [Example 27] ; wanted: its IC50
## Result 1000 to 10000 nM

## Task # input compound: CN(c1ncccc1CNc1nc(Nc2ccc(P3(=O)OCC(C)(C)CO3)cc2)ncc1C(F)(F)F)S(C)(=O)=O [Example 60] ; wanted: its IC50
## Result < 1000 nM

## Task # input compound: CCOP(C)(=O)Cc1ccc(Nc2ncc(C(F)(F)F)c(Nc3ccc(C#CC(C)(C)O)c4c3C(=O)N(C)C4)n2)cc1 (centres unmarked) [Example 75] ; wanted: its IC50
## Result < 1000 nM

## Task # input compound: CCOP(C)(=O)Cc1ccc(Nc2ncc(C(F)(F)F)c(Nc3ccccc3C(=O)NC)n2)cc1 (centres unmarked) [Example 22] ; wanted: its IC50
## Result < 1000 nM

## Task # input compound: CCOP(C)(=O)Cc1ccc(Nc2ncc(C(F)(F)F)c(NCc3cccnc3N(C)S(C)(=O)=O)n2)cc1 (centres unmarked) [Example 45] ; wanted: its IC50
## Result < 1000 nM

## Task # input compound: COP(=O)(Cc1cccc(Nc2ncc(C(F)(F)F)c(NCc3cccnc3N(C)S(C)(=O)=O)n2)c1)OC [Example 56] ; wanted: its IC50
## Result < 1000 nM

## Task # input compound: CCOP(C)(=O)Cc1ccc(Nc2ncc(C(F)(F)F)c(Nc3ccc(Br)c4c3C(=O)N(C)C4)n2)cc1 (centres unmarked) [Example 61] ; wanted: its IC50
## Result 1000 to 10000 nM

## Task # input compound: CN(c1ncccc1CNc1nc(Nc2cccc(P(C)(C)=O)c2)ncc1C(F)(F)F)S(C)(=O)=O [Example 15] ; wanted: its IC50
## Result < 1000 nM

## Task # input compound: CN(c1ncccc1CNc1nc(Nc2ccc(P(C)(C)=O)cc2)ncc1C(F)(F)F)S(C)(=O)=O [Example 14] ; wanted: its IC50
## Result < 1000 nM

## Task # input compound: CCP(=O)(CC)Cc1ccc(Nc2ncc(C(F)(F)F)c(Nc3ccccc3C(=O)NC)n2)cc1 [Example 24] ; wanted: its IC50
## Result < 1000 nM

## Task # input compound: CCOP(=O)(O)Cc1cccc(Nc2ncc(C(F)(F)F)c(NCc3cccnc3N(C)S(C)(=O)=O)n2)c1 [Example 44] ; wanted: its IC50
## Result > 10000 nM

## Task # input compound: CC(C)COP(=O)(Cc1ccc(Nc2ncc(C(F)(F)F)c(NCc3cccnc3N(C)S(C)(=O)=O)n2)cc1)OCC(C)C [Example 30] ; wanted: its IC50
## Result 1000 to 10000 nM

## Task # input compound: CCOP(=O)(Cc1ccccc1Nc1ncc(C(F)(F)F)c(NCc2cccnc2N(C)S(C)(=O)=O)n1)OCC [Example 3] ; wanted: its IC50
## Result > 10000 nM

## Task # input compound: CCOP(=O)(Cc1ccc(Nc2ncc(C(F)(F)F)c(Nc3ccccc3C(=O)NC)n2)cc1)OCC [Example 20] ; wanted: its IC50
## Result < 1000 nM

## Task # input compound: CN(c1ncccc1CNc1nc(Nc2ccc(CP3(=O)OCC(C)(C)CO3)cc2)ncc1C(F)(F)F)S(C)(=O)=O [Example 32] ; wanted: its IC50
## Result < 1000 nM

## Task # input compound: CN(c1ncccc1CNc1nc(Nc2cccc(CP(C)(C)=O)c2)ncc1C(F)(F)F)S(C)(=O)=O [Example 13] ; wanted: its IC50
## Result < 1000 nM

## Task # input compound: CCCCOP(=O)(Cc1ccc(Nc2ncc(C(F)(F)F)c(NCc3cccnc3N(C)S(C)(=O)=O)n2)cc1)OCCCC [Example 26] ; wanted: its IC50
## Result < 1000 nM

## Task # input compound: CCOP(C)(=O)Cc1ccc(Nc2ncc(C(F)(F)F)c(Nc3ccc(C#CC(C)O)c4c3C(=O)N(C)C4)n2)cc1 (centres unmarked) [Example 76] ; wanted: its IC50
## Result 1000 to 10000 nM

## Task # input compound: CCOP(C)(=O)Cc1ccc(Nc2ncc(C(F)(F)F)c(Nc3ccc(-c4cnn(CCO)c4)c4c3C(=O)N(C)C4)n2)cc1 (centres unmarked) [Example 64] ; wanted: its IC50
## Result < 1000 nM

## Task # input compound: CCOP(C)(=O)Cc1cccc(Nc2ncc(C(F)(F)F)c(NCc3cccnc3N(C)S(C)(=O)=O)n2)c1 (centres unmarked) [Example 46] ; wanted: its IC50
## Result < 1000 nM

## Task # input compound: CCOP(C)(=O)Cc1ccc(Nc2ncc(C(F)(F)F)c(Nc3ccc(N4CCCCC4)c4c3C(=O)N(C)C4)n2)cc1 (centres unmarked) [Example 82] ; wanted: its IC50
## Result < 1000 nM

## Task # input compound: CCOP(=O)(Cc1ccc(Nc2ncc(C(F)(F)F)c(Nc3ccc(-c4cnn(CCO)c4)c4c3C(=O)N(C)C4)n2)c(OC)c1)OCC [Example 69] ; wanted: its IC50
## Result < 1000 nM

## Task # input compound: CCOP(=O)(O)Cc1ccc(Nc2ncc(C(F)(F)F)c(NCc3cccnc3N(C)S(C)(=O)=O)n2)cc1 [Example 42] ; wanted: its IC50
## Result 1000 to 10000 nM

## Task # input compound: CN(c1ncccc1CNc1nc(Nc2cccc(CP(=O)(O)O)c2)ncc1C(F)(F)F)S(C)(=O)=O [Example 43] ; wanted: its IC50
## Result 1000 to 10000 nM

## Task # input compound: CNC(=O)c1ccccc1Nc1nc(Nc2ccc(P(C)(C)=O)cc2)ncc1C(F)(F)F [Example 18] ; wanted: its IC50
## Result < 1000 nM

## Task # input compound: CCOP(C)(=O)Cc1ccc(Nc2ncc(C(F)(F)F)c(Nc3ccc(N4CCCC4)c4c3C(=O)N(C)C4)n2)cc1 (centres unmarked) [Example 80] ; wanted: its IC50
## Result < 1000 nM

## Task # input compound: CCOP(=O)(OCC)C(C)(C)c1ccc(Nc2ncc(C(F)(F)F)c(NCc3cccnc3N(C)S(C)(=O)=O)n2)cc1 [Example 7] ; wanted: its IC50
## Result < 1000 nM
